system: NCI-H460 lung; assay: NCI-60 one-dose screen, 48 h (100 = growth as untreated, 0 = no growth, -100 = all killed); details: 10 µM unless noted
This is part of a sample that, as a whole, favours compounds with a hit. Of some 83,000 tested, about 20% had one in any assay.
I would appreciate it if you labelled entries y when growth is 90% or higher, otherwise n.

Answered cases to consult:
Hi team, for CC1=CCc2ccccc21 , is the recorded growth at or above 90%?
y

Consider next the compound CCOc1ccc2sc(NS(=O)(=O)c3ccc(N)cc3)nc2c1 in the same way.
y

Same question, CC(C)[C@H]1COC(=O)N1[C@@H]1C(=O)N([C@@H](CCC(=O)N2CCN(C3CCCC3)CC2)C(=O)N[C@@H]2CCCc3ccccc32)[C@@H]1/C=C/c1cccc(Cl)c1 this time
n

Ok, now CCN(CC)CCCOc1ccc2c(c1)O/C(=C\c1cccc(OC)c1)C2=O
n

---
Record CCCCC(CCCCCC(CCCC)C1NC(C)Cc2cc(OC)c(OC)cc21)C1NC(C)Cc2cc(OC)c(OC)cc21 (stereo not given) ; criterion: growth no lower than 90%. Met?
n

Thanks! And COc1ccc(-c2ccc(NNC(=O)c3ccc(F)cc3)nn2)cc1OC ?
y

====

tested on: SNB-75 CNS; experiment: NCI-60 one-dose screen, 48 h; conditions: 10 µM unless noted
Compounds without any hit were thinned out: in the full panel of roughly 83,000, 20% have a hit. Active and inactive are the calls of the source. The calls were made as follows: active = growth percent below 10; inactive = the rest.
Write down one outcome, taken from 1 (yes) (active), 0 (no) (inactive)

Returns: the outcome recorded for COc1cc2c(cc1OC(C)=O)C(=O)CCCC2 in this assay.
0 (no)

Now this one: O=C(NCCCNC(=O)OCc1ccc2cccc(O)c2n1)OCc1ccc2cccc(O)c2n1
0 (no)

Another molecule to look at: CC1Cc2c(Cl)ncnc2N(C)c2ccc(Cl)cc21 (stereo not drawn)
0 (no)

For c1nc(N2CCOCC2)c2[nH]ccc2n1 then?
0 (no)

---
Short answer needed: outcome of this test for O=C1COCCN1c1ccc(NCc2cn(Cc3ccc(F)cc3)c3ccccc23)cc1 ?
0 (no)

====

test system: TK-10 renal; assay: NCI-60 one-dose screen, 48 h; conditions: 10 µM unless noted
About 83,000 compounds went through this panel and 20% of them were active in at least one assay; those are over-represented in the sample as a whole. Calls of active or inactive are those of the source. How the source made its calls: active means growth percent below 10; inactive means the rest.
Mark one answer only. Choices: active, inactive

Would you mind telling me which call this test gave COc1ccc(/C=C/C=C\C(=O)c2ccc(-n3ccnc3)cc2)cc1 ?
inactive

Here is the next molecule: C=C(C)[C@@H]1CC[C@]2(C(=O)NCCNCCNCCN)CC[C@]3(C)[C@H](CC[C@@H]4[C@@]5(C)CCC(=O)C(C)(C)[C@@H]5CC[C@]43C)[C@@H]12
active

# iterate: O=C1/C(=C\c2cccn2Cc2ccccc2)c2ccccc2N1c1c(Cl)cccc1Cl
inactive

Request: CCOC(=O)C1=C(C(=O)c2ccc(Br)cc2)C(c2ccc(Br)cc2)NC(=S)N1 (stereo not given)
inactive

Ok, now O=c1cc(-c2ccccc2)oc2c(O)c(O)ccc12
inactive

***
Given CN(C)CCOc1ccc(/C(=C(/CCCl)c2ccccc2)c2ccccc2)cc1 , state the outcome it received in this test.
inactive

Request: O=C(O)CC1CCCCC1c1ccccc1 (stereo not given)
inactive

Similarly, Cc1ccc(NC(=S)/N=c2/n(-c3ccccc3)nc3n2CCN3C2=NCCN2)cc1 ?
inactive

Consider next the molecule CCOC(=O)c1c[nH]n2c(=S)ncnc12 in the same way.
inactive

# iterate: CC(C)OC(=O)Nc1cc(F)c(F)cc1F
inactive
